- Tested on: UACC-257 melanoma
- Method Description: NCI tumour cell line growth inhibition, 48 h
TGI values, listed per item
Endpoint Label: TGI

compound=O=C(NCP(=O)(Oc1ccccc1)Oc1ccccc1)OCc1ccccc1 val="> 100 µM"
compound="CC(NC(=O)Cc1ccccc1)NC(=O)C(C)C(=O)Nc1ccccc1 (stereo unspecified)" val="> 100 µM"
compound=CC(=O)Nc1ccc(-c2csc(Nc3cccc(-c4csc(C)n4)c3)n2)cc1 val="21.5 µM"
compound=O=C1CCC(c2ccccc2)=NN1c1nsc2ccccc12 val="> 100 µM"
compound=CCCNc1ncnc2c1ncn2C val="> 100 µM"
compound="COc1cccc(N2C(Cl)C(=O)C2c2c[nH]c3ccccc23)c1 (stereo unspecified)" val="> 100 µM"
compound=O=[N+]([O-])c1ccc2occ3c2c1CCC3 val="> 100 µM"
compound=CCOc1cc(/C=C2/C(C)=NN(c3cccc(Cl)c3)/C2=N/c2nc3ccccc3s2)ccc1O val="61.6 µM"
compound="COc1c(O)c2c(=O)cc3c4c5c(cc(=O)c6c(O)c(OC)c(CC(C)O)c(c(c1CC(C)O)c24)c65)OCO3 (stereo unspecified)" val="2.78 µM"
compound="CC(O)CNC(=O)C(C)Oc1ccc(OCC2CCCCC2)cc1 (stereo unspecified)" val="> 100 µM"
compound=CN(C)C(=S)/N=c1\sn(C)/c(=N\C(=S)N(C)C)n1C val="> 100 µM"
